- System: Staphylococcus aureus
- setup conditions: Concentration 32 ug.mL-1;; ASSAY_TEST Inhibition of Bacterial Growth; detection method Absorption (OD600); MEDIA CAMHB; plate type 384well; NBS; CORNING #3640; time 18 hr
- Description: Antibacterial activity against Staphylococcus aureus MRSA ATCC 43300 (CO-ADD:GP_020); MIC in CAMBH media, using NBS plates, by OD(600)
Results with a measured potency or affinity are listed apart.
readout: Inhibition
Dear colleague, please send the value followed by its unit.

[[record]]
compound_structure_string = "CCc1ccccc1NC(=O)Cn1nc2c(SCc3ccc(Cl)cc3)nccn2c1=O"
measured_result = "9.03%"

[[record]]
compound_structure_string = "COc1cccc(-n2ccn3c(SCC(=O)Nc4ccc(Br)cc4)nnc3c2=O)c1"
measured_result = "-2.74%"

[[record]]
compound_structure_string = "CCOc1ccccc1CNC(=O)CCc1nnc2ccc(-c3ccc(C)cc3)nn12"
measured_result = "9.96%"

[[record]]
compound_structure_string = "O=c1c2sccc2n2c(=O)n(Cc3ccc(Cl)cc3)nc2n1Cc1cccs1"
measured_result = "-8.27%"


Please turn your attention to the following entry.
Inhibition reading for `COc1ccccc1-n1ccn2c(SCC(=O)Nc3ccc4c(c3)OCCO4)nnc2c1=O` : 18.21%
